// data source = patent EP1304101A1

- system: AGE-BSA (Bos taurus, UniProt P02769)
- Construct: Bovine serum albumin (fraction V) (BSA); from tissue
- Sequence (P02769 25-607): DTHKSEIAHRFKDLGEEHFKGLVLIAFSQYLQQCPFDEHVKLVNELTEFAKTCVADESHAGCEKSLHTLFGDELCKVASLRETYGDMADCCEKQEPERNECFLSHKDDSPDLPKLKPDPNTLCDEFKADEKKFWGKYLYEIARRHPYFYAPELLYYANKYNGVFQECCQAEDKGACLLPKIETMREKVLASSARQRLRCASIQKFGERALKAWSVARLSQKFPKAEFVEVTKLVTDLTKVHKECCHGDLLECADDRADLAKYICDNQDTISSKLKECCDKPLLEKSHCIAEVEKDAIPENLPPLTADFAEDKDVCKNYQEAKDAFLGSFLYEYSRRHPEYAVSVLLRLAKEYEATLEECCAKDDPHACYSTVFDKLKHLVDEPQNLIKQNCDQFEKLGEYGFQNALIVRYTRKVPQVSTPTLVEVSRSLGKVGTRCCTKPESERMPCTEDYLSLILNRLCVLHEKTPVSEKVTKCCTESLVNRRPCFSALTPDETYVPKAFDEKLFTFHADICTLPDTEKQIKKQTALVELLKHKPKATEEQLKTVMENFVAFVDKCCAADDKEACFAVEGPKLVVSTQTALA
- test.details: In-vitro AGE breaking activity by ELISA (16 weeks AGE-BSA incubated with test compound)
- Format: biochemical, bovine
- condition.context: 10 mM test compound; 37°C, 24 hours

{"compound": "CS(=O)(=O)NNC(=O)c1ccc[n+](CC(=O)N2CCC(Cc3ccccc3)CC2)c1.[Cl-]", "% Breakage, %": 20.94}
{"compound": "O=C(NNC(=O)c1ccc[n+](CC(=O)c2cc([N+](=O)[O-])cs2)c1)c1ccc[n+](CC(=O)c2cc([N+](=O)[O-])cs2)c1", "% Breakage, %": 75.92}
{"compound": "O=C(C[n+]1ccsc1)c1ccccc1 [PTB, reference compound]", "% Breakage, %": 27}
{"compound": "O=C(NNC(=O)c1ccc[n+](CC(=O)c2ccco2)c1)c1ccc[n+](CC(=O)c2ccco2)c1", "% Breakage, %": 14}
{"compound": "CS(=O)(=O)NNC(=O)c1ccc[n+](CC(=O)c2cccs2)c1.[Br-]", "% Breakage, %": 16}
{"compound": "COCCNC(=O)c1cc(Br)c[n+](CC(=O)c2cccs2)c1", "% Breakage, %": 32.38}
{"compound": "O=C(NNC(=O)c1ccc[n+](CC(=O)c2ccc(Cl)s2)c1)c1ccc[n+](CC(=O)c2ccc(Cl)s2)c1", "% Breakage, %": 78.41}
{"compound": "CCOC(=O)NNC(=O)c1ccc[n+](CC(=O)c2cccs2)c1", "% Breakage, %": 33.43}
{"compound": "NC(=O)c1ccc[n+](CC(=O)c2cccs2)c1", "% Breakage, %": 3}
{"compound": "CCCCNC(=O)c1ccc[n+](CC(=O)Nc2ccccc2)c1.[Cl-]", "% Breakage, %": 27}
{"compound": "CC(C)NC(=O)C[n+]1cccc(C(=O)NNS(C)(=O)=O)c1.[Cl-]", "% Breakage, %": 10.85}
{"compound": "O=C(NCCO)c1ccc[n+](CC(=O)c2cccs2)c1", "% Breakage, %": 50}
{"compound": "CCOC(=O)C[n+]1cccc(C(=O)OCCOC(=O)c2ccccc2)c1.[Br-]", "% Breakage, %": 19}
{"compound": "CCCCOC(=O)c1ccc[n+](CC(=O)Nc2ccccc2)c1.[Cl-]", "% Breakage, %": 57}
{"compound": "O=C(NNC(=O)c1cccnc1Cl)c1ccc[n+](CC(=O)c2cccs2)c1", "% Breakage, %": 12.51}
{"compound": "CS(=O)(=O)NNC(=O)c1ccc[n+](CC(=O)c2ccc(Cl)s2)c1.[Br-]", "% Breakage, %": 40.85}
{"compound": "COCCNC(=O)c1ccc[n+](CC(=O)NC2CC2)c1.[Cl-]", "% Breakage, %": 12.38}

----------
- system: AGE-BSA (Bos taurus, UniProt P02769)
- Construct: Bovine serum albumin (fraction V) (BSA); from tissue
- test.details: In-vitro AGE breaking activity by ELISA (16 weeks AGE-BSA incubated with test compound)
- Assay type: biochemical, bovine
- condition.context: 5 mM test compound; 37°C, 24 hours
measurement.type: % Breakage (%)

{"compound": "O=C(NNC(=O)c1ccc[n+](CC(=O)c2cccs2)c1)c1ccc[n+](CC(=O)c2cccs2)c1.[Br-].[Br-] [Compound 6]", "measurement.type": "% Breakage", "value.reported": 53}
{"compound": "O=C(NNC(=O)c1ccc[n+](CC(=O)c2cccs2)c1)c1ccc[n+](CC(=O)c2cccs2)c1.[Cl-].[Cl-] [Compound 33]", "measurement.type": "% Breakage", "value.reported": 20}
{"compound": "O=C(C[n+]1cccc(C(=O)NNC(=O)c2ccc[n+](CC(=O)NC3CC3)c2)c1)NC1CC1 [Compound 39]", "measurement.type": "% Breakage", "value.reported": 22.8}
{"compound": "O=C(C[n+]1cccc(C(=O)NNC(=O)c2ccc[n+](CC(=O)c3ccccc3)c2)c1)c1ccccc1 [Compound 1]", "measurement.type": "% Breakage", "value.reported": 13}
{"compound": "COCCNC(=O)c1ccc[n+](CC(=O)c2ccc(Cl)cc2Cl)c1.[Br-] [Compound 38]", "measurement.type": "% Breakage", "value.reported": 17.66}

----------
- test.details: Free radical scavenging activity on ABTS radical cation (absorbance at 730nm)
- Format: biochemical
- condition.context: 46.0µM
The compounds listed here are annotated with their Relative Free Radical Scavenging Activity(%) on ABTS.
measurement.type: Relative Free Radical Scavenging Activity(%) on ABTS

{"compound": "CS(=O)(=O)NNC(=O)c1ccc[n+](CC(=O)c2ccc(Cl)s2)c1.[Br-] [Compound 55]", "value.reported": 99.50}
{"compound": "O=C(C[n+]1cccc(C(=O)c2ccccc2)c1)c1ccccc1.[Br-] [Compound 98]", "value.reported": 51.1}
{"compound": "O=C(NCCO)c1ccc[n+](CC(=O)c2cccs2)c1 [Compound 90]", "value.reported": 78.2}
{"compound": "O=C(NCCOC(=O)c1ccccc1)c1ccc[n+](CC(=O)c2cccs2)c1.[Br-] [Compound 36]", "value.reported": 74.2}
{"compound": "CS(=O)(=O)NNC(=O)c1ccc[n+](CC(=O)c2cccs2)c1.[Br-] [Compound 5]", "value.reported": 83.7}
{"compound": "CCCCOC(=O)c1ccc[n+](CC(=O)Nc2ccccc2)c1.[Cl-] [Compound 93]", "value.reported": 9.6}
{"compound": "O=C=Nc1ccc[n+](CC(=O)c2ccc(Cl)cc2Cl)c1.[Br-] [Compound 82]", "value.reported": 62.7}
{"compound": "CC(C)S(=O)(=O)NNC(=O)c1ccc[n+](CC(=O)c2cccs2)c1 [Compound 50]", "value.reported": 54.95}
{"compound": "Cc1ccc(C(=O)C[n+]2cccc(C(=O)NNS(C)(=O)=O)c2)s1.[Cl-] [Compound 63]", "value.reported": 88.64}

----------
- system: AGE-BSA (Bos taurus, UniProt P02769)
- Construct: Bovine serum albumin (fraction V) (BSA); from tissue
- test.details: In-vitro AGE breaking activity by ELISA (16 weeks AGE-BSA incubated with test compound)
- Assay type: biochemical, bovine
- condition.context: 10 mM test compound; 37°C, 24 hours
measurement.type: % Breakage (%)

{"compound": "CCOC(=O)C1CCCN1C(=O)C[n+]1cccc(C(=O)NNS(C)(=O)=O)c1.[Cl-] (centres unmarked) [Compound 52]", "value.reported": 25.34}
{"compound": "CS(=O)(=O)NNC(=O)c1ccc[n+](CC(=O)c2cc([N+](=O)[O-])cs2)c1.[Br-] [Compound 64]", "value.reported": 60.94}
{"compound": "O=C(NNS(=O)(=O)C(F)(F)F)c1ccc[n+](CC(=O)c2cccs2)c1 [Compound 68]", "value.reported": 92.64}
{"compound": "CC(=O)OCCOC(=O)c1ccc[n+](CC(=O)c2ccccc2)c1.[Br-] [Compound 16]", "value.reported": 16}
{"compound": "O=C(C[n+]1ccc(C(=O)NCCOC(=O)c2ccccc2)cc1)Nc1ccccc1.[Cl-] [Compound 66]", "value.reported": 19.07}
{"compound": "CCOC(=O)C1CSCN1C(=O)C[n+]1cccc(C(=O)NNS(C)(=O)=O)c1.[Cl-] (centres unmarked) [Compound 61]", "value.reported": 25.06}
{"compound": "CC(C)S(=O)(=O)NNC(=O)c1ccc[n+](CC(=O)c2cccs2)c1 [Compound 50]", "value.reported": 31.45}
{"compound": "CCOC(=O)C1CCCN1C(=O)C[n+]1cccc(C(=O)NNC(=O)c2ccc[n+](CC(=O)N3CCCC3C(=O)OCC)c2)c1 (centres unmarked) [Compound 59]", "value.reported": 20.31}

----------
The compounds listed here are annotated with their Relative Free Radical Scavenging Activity(%) on ABTS.
- test.details: Free radical scavenging activity on ABTS radical cation (absorbance at 730nm)
- Type: biochemical
- condition.context: 46.0µM
measurement.type: Relative Free Radical Scavenging Activity(%) on ABTS

{"compound": "COCCNC(=O)c1ccc[n+](CC(=O)c2ccc(Cl)cc2Cl)c1.[Br-] [Compound 38]", "value.reported": 71.0}
{"compound": "O=C(NNS(=O)(=O)C(F)(F)F)c1ccc[n+](CC(=O)c2cccs2)c1 [Compound 68]", "value.reported": 89.32}
{"compound": "Cc1ccc(S(=O)(=O)NNC(=O)c2ccc[n+](CC(=O)Nc3ccccc3)c2)cc1.[Cl-] [Compound 27]", "value.reported": 75.3}
{"compound": "O=C(C[n+]1cccc(C(=O)NNc2ccccc2)c1)Nc1ccccc1.[Cl-] [Compound 65]", "value.reported": 94.14}
{"compound": "O=C(NCCOC(=O)c1ccccc1)c1ccc[n+](CC(=O)c2ccc(Cl)cc2Cl)c1.[Br-] [Compound 8]", "value.reported": 72.6}
{"compound": "NC(=O)c1cccnc1 [Niacinamide, reference compound]", "value.reported": 3.8}
{"compound": "CS(=O)(=O)NNC(=O)c1ccc[n+](CC(=O)c2ccc([N+](=O)[O-])s2)c1 [Compound 67]", "value.reported": 97.46}
{"compound": "CS(=O)(=O)NNC(=O)c1ccc[n+](CC(=O)c2cccs2)c1.[Cl-] [Compound 45]", "value.reported": 78.7}
